Source listed as ChEMBL document CHEMBL1156693.

Quick reference for Activity among some compounds
Tested on: Mus musculus
assay: Clastogenic effect on C57BL mouse assessed as number of metaphase chromosomal fragments in bone marrow cells at 100 mg/kg, ip after 48 hrs
Format: functional
measurement-context: route intraperitoneal
measurement-type: Activity

INSERT INTO results (smiles_string, target_entity, measurement_type, assay_result) VALUES
  ('COP(=O)(CNC1(C(=O)O)CCCCCCCCCCC1)OC', 'Mus musculus', 'Activity', 6),
  ('COP(=O)(CNC1(C(=O)O)CCCCC1)OC', 'Mus musculus', 'Activity', 0),
  ('COP(=O)(CNC1(C(=O)O)CCCC1)OC', 'Mus musculus', 'Activity', 0),
  ('COP(=O)(CNC1(C(=O)O)CCCCCC1)OC', 'Mus musculus', 'Activity', 0),
  ('COP(=O)(CNC1(C(=O)O)CCCCCCC1)OC', 'Mus musculus', 'Activity', 0);
